Source listed as patent US4623662A.

# TARGET_OF_ASSAY: fatty acyl CoA: cholesterol acyl transferase (ACAT) (Rattus norvegicus, UniProt O70536)
# Construct: The supernatant, containing the microsomal fraction, served as the source of the cholesterol-esterifying enzyme; from tissue; host or cells: rat adrenals, supernatant of 1,000 x g centrifugation containing the microsomal fraction
# Sequence (O70536 whole entry): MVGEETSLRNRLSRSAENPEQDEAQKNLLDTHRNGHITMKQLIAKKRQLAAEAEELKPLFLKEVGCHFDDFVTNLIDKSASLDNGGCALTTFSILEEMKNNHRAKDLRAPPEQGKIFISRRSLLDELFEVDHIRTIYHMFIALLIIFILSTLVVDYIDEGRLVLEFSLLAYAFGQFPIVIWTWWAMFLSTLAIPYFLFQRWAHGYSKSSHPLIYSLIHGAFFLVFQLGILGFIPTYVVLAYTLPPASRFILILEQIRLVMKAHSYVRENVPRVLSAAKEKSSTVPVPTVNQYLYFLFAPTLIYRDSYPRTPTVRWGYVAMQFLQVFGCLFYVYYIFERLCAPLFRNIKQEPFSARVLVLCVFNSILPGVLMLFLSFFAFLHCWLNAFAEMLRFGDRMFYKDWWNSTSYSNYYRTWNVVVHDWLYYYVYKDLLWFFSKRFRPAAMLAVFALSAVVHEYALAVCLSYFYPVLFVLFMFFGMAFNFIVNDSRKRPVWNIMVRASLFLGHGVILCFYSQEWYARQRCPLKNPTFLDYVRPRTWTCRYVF
# MEASUREMENT_DESCRIPTION: Inhibition of fatty acyl CoA:cholesterol acyl transferase (ACAT), rat adrenal enzyme
# Assay type: biochemical
# SETTINGS: rat adrenal ACAT; final concentration 5.2 μg/ml; read-out: % Inhibition
Returns label 1 if the recorded inhibition at 5.2 µg/mL is greater than or equal to 90%, and label 0 otherwise.

# COMPOUND, ASSIGNED_LABEL
measured = [
    ("CCCCN(Cc1ccccc1)C(=O)Nc1ccccc1[N+](=O)[O-]", "label 0"),
    ("CCCCCCCN(Cc1ccc(OCCCC)cc1)C(=O)Nc1ccc(C)cc1C", "label 1"),
    ("CCCCN(Cc1ccccc1)C(=O)Nc1cccc(Cl)c1O", "label 0"),
    ("COc1ccc(OC)c(CCN(Cc2cccc(Cl)c2)C(=O)Nc2ccc(C)cc2C)c1", "label 1"),
    ("CCCCCCCN(Cc1ccc(CCCC)cc1)C(=O)Nc1cccc(C)c1", "label 1"),
    ("Cc1cc(C)c(NC(=O)N(Cc2ccccc2)C(Cc2ccccc2)c2ccc(OCc3ccccc3)cc2)cc1C (stereo not shown)", "label 1"),
    ("CCCCCCCN(Cc1ccc(CCCC)cc1)C(=O)Nc1cc(Cl)c(Cl)cc1Cl", "label 0"),
    ("CCCCN(Cc1ccc(F)cc1)C(=O)Nc1ccc(C)cc1C", "label 0"),
    ("CCCCCCCN(Cc1ccc(CCCC)cc1)C(=O)Nc1cccc(C(F)(F)F)c1", "label 0"),
    ("Cc1ccc(NC(=O)N(Cc2ccccc2)C(Cc2ccccc2)c2ccccc2)c(C)c1 (stereo not shown)", "label 1"),
    ("CCCCCCCN(Cc1ccc(OCCCC)cc1)C(=O)Nc1cc(C)c(C)cc1C", "label 1"),
    ("COc1cccc(C(Cc2ccccc2)N(Cc2ccccc2)C(=O)Nc2ccc(C)cc2C)c1 (stereo not shown)", "label 0"),
    ("CCCCCCCN(C(=O)Nc1c(Cl)cc(Cl)cc1Cl)c1ccco1", "label 1"),
    ("CCCCN(Cc1ccccc1)C(=O)Nc1c(C)cc(C)cc1C", "label 0"),
    ("CCCCCCCN(CCc1ccccc1)C(=O)Nc1ccc(C)cc1C", "label 1"),
    ("CCCCc1ccc(CN(CCCCCCO)C(=O)Nc2ccc(C)cc2C)cc1", "label 1"),
    ("Cc1ccc(NC(=O)N(CCc2ccccc2C)Cc2ccc(Br)cc2)c(C)c1", "label 0"),
    ("CCCCN(Cc1ccc(-c2ccccc2)cc1)C(=O)Nc1ccc(C)cc1C", "label 1"),
    ("CCCCN(CCc1ccc(F)cc1)C(=O)Nc1ccc(C)cc1C", "label 1"),
    ("CCCCN(Cc1ccccc1)C(=O)Nc1c(C)cccc1C", "label 0"),
    ("CCCCCCCN(Cc1ccc(CCCC)cc1)C(=O)Nc1cc(C)c(C)cc1C", "label 1"),
    ("CCCCN(Cc1ccccc1)C(=O)Nc1cccc(C)c1C", "label 0"),
    ("Cc1ccc(CCN(Cc2cccc(Cl)c2)C(=O)Nc2ccc(C)cc2C)cc1", "label 0"),
    ("COc1ccc(CCN(Cc2ccc(C)c(Cl)c2)C(=O)Nc2ccc(C)cc2C)cc1OC", "label 0"),
    ("CCCCOc1ccc(CN(Cc2ccccc2)C(=O)Nc2cc(C)c(C)cc2C)cc1", "label 1"),
    ("CCCCCOc1ccc(CN(Cc2ccc(CCCCC)cc2)C(=O)Nc2c(Cl)cc(Cl)cc2Cl)cc1", "label 1"),
    ("COc1ccc(CCN(Cc2ccc(F)cc2)C(=O)Nc2ccc(C)cc2C)cc1OC", "label 0"),
    ("O=C(Nc1c(Cl)cc(Cl)cc1Cl)N(Cc1ccccc1)C(Cc1ccccc1)c1ccc(OCc2ccccc2)cc1 (stereo not shown)", "label 1"),
    ("CCCCN(Cc1ccc(OC)cc1)C(=O)Nc1ccc(C)cc1C", "label 1"),
    ("CCCCCCCCCCN(Cc1ccccc1)C(=O)Nc1ccc(C)cc1C", "label 1"),
    ("CCCCN(Cc1ccc(C)cc1)C(=O)Nc1ccc(C)cc1C", "label 1"),
    ("CCCCN(Cc1ccccc1F)C(=O)Nc1ccc(C)cc1C", "label 0"),
    ("Cc1ccc(CCN(Cc2ccc3c(c2)OCO3)C(=O)Nc2ccc(C)cc2C)cc1", "label 0"),
    ("CCCCN(CCc1cccc(Br)c1)C(=O)Nc1ccc(C)cc1C", "label 1"),
]
